All values here come from ChEMBL document CHEMBL3727350.

Target: Transient receptor potential cation channel subfamily M member 7 (Mus musculus)
Assay: Inhibition of Tet-induced Flag-tagged mouse TRPM7 expressed in HEK293 cells assessed as inhibition of channel-mediated cell death in presence of Mg2+ incubated for 24 to 48 hrs by propidium iodide uptake assay
Assay type: cell-based
Parameters: concentration or dose not given beside the values
Details: concentration not given here
Assignment: determine reported inhibition for the given molecules.
Return type: number; implicit unit %.

Lookup: What value of inhibition has been reported for the following molecule? Cc1ccc(-n2c(-c3ccc(Cl)c(C)c3)csc2=N)c(C)c1.Cl
Found: 80

Lookup: Given CCCCCCCC(=O)NC1=NC2c3ccc(OC)cc3CCC2S1 (stereo unspecified) , state its recorded inhibition.
Found: 70

Lookup: # get_value(readout='inhibition', item= CCNC(=O)C(Cc1ccccc1)NC(=O)OC(C)(C)C (stereo unspecified) )
Found: 30

Lookup: Can you share its inhibition? I mean this molecule: CCOC(=O)C(Nc1ccccc1)C(=O)OCC
Found: 30

Lookup: What inhibition value was documented for this molecule, O=C(/C(=N/Nc1ccc([N+](=O)[O-])cc1)C(=O)C(F)(F)F)c1cccs1 ?
Found: 40

Lookup: Look up inhibition: O=C(CSC1CN(C(c2ccccc2)c2ccccc2)C1)N/N=C/c1ccncc1
Found: 50

Lookup: What inhibition value was documented for this molecule, CCOC(=O)CCc1cc(/N=C/c2cc(Cl)cc(Cl)c2O)c(O)c(/N=C/c2cc(Cl)cc(Cl)c2O)c1 ?
Found: 50

Lookup: Any idea what its inhibition is? The molecule is COc1ccc(S(=O)(=O)N2CCC(O)(c3ccc(Cl)cc3)CC2)cc1OC
Found: 40

----------
Biological target: Transient receptor potential cation channel subfamily M member 7 (Mus musculus) (UniProt Q923J1)
Sequence (Q923J1 whole entry): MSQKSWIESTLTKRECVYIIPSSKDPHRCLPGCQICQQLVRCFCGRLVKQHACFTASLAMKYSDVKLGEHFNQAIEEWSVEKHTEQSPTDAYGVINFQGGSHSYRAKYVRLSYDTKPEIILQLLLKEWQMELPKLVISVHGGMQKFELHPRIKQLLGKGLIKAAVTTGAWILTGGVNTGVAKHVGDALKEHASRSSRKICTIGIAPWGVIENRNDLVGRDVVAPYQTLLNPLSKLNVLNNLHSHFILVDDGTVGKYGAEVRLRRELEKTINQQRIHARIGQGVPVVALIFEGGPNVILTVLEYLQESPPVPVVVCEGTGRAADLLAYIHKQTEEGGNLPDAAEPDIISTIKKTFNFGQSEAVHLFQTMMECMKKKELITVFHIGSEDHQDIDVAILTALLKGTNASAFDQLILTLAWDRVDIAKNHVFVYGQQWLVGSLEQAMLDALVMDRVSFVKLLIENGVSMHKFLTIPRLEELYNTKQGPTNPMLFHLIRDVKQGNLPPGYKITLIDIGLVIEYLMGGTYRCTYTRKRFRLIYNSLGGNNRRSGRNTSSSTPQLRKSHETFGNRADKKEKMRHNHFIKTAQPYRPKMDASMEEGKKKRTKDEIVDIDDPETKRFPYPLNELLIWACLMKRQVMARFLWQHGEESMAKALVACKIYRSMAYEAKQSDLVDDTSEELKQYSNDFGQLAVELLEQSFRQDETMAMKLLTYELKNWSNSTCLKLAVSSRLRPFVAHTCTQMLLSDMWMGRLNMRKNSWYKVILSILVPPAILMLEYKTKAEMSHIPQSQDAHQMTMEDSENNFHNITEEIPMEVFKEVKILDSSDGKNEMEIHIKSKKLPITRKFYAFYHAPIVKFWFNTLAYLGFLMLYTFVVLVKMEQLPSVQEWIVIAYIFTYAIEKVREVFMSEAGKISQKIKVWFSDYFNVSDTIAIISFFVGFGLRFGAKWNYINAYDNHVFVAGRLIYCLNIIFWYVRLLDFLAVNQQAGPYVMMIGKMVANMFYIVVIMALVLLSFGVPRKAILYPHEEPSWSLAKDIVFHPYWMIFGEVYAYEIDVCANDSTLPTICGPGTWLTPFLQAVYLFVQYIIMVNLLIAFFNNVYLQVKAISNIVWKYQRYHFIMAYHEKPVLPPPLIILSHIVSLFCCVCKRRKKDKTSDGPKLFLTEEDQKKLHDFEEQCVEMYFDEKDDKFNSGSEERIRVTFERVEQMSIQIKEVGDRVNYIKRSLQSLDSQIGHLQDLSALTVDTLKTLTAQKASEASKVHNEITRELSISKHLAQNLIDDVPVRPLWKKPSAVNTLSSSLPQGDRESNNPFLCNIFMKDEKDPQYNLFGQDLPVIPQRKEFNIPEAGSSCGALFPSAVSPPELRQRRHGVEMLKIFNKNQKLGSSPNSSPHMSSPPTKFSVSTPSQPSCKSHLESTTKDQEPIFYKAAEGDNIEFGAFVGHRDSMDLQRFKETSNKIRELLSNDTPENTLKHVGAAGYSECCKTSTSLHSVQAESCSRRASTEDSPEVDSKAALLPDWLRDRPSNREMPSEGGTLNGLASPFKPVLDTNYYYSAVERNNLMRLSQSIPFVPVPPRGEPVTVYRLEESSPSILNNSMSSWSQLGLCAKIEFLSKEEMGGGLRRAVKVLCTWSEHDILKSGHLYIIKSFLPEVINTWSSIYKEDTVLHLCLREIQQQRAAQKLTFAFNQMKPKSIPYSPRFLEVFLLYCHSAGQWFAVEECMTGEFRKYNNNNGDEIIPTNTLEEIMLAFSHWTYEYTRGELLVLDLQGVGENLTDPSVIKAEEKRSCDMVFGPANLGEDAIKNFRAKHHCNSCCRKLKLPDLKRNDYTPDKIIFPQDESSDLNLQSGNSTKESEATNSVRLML
Test: Inhibition of Tet-induced Flag-tagged mouse TRPM7 expressed in HEK293 cells assessed as inhibition of channel-mediated cell death in presence of Mg2+ incubated for 24 to 48 hrs by propidium iodide uptake assay
Format: cell-based
Design: concentration or dose not given beside the values
Settings: concentration not given here
So I've got a bunch of compounds here, and I need their inhibition values.

Lookup: For O=C(Sc1ccc(C(F)(F)F)cn1)c1ccc(Cl)cc1 , what is its reported inhibition?
Found: < 30%

Lookup: Please look up its inhibition: COc1cc(OC)cc(C(C)(C)OC(=O)NCCC(=O)O)c1
Found: < 30%

Lookup: Bench note: what inhibition did Clc1ccc2c(N3CCCCC3)ccnc2c1 show?
Found: < 30%

Lookup: Field request: inhibition | item: CS/C(=N\c1ccc(C)cc1)Nc1ccc(C)cc1
Found: 50%

Lookup: Can you look up the measured inhibition of O=C(Nc1ccc(N2CCC(C(F)(F)F)CC2)nc1)c1ccc(OC(F)(F)F)cc1 for me?
Found: < 30%

Lookup: Look up inhibition for this compound: O=S(=O)(CCN1CCC(n2cccc2)CC1)c1ccc(F)cc1
Found: 40%

----------
Target: Transient receptor potential cation channel subfamily M member 7 (Mus musculus) (UniProt Q923J1)
Experiment: Inhibition of Tet-induced Flag-tagged mouse TRPM7 expressed in HEK293 cells assessed as inhibition of channel-mediated cell death in presence of Mg2+ incubated for 24 to 48 hrs by propidium iodide uptake assay
Assay type: cell-based
Set-up: concentration or dose not given beside the values
Conditions: concentration not given here
Kindly supply the reported inhibition values for the records listed here.

Lookup: Requested read-out: inhibition. Entry: O=C(Nc1ccc(CN2CCS(=O)(=O)CC2)cc1)c1ccc(C(F)(F)F)cc1
Found: 40%

Lookup: Fill in: inhibition of O=S(=O)(CS(=O)(=O)Oc1ccc(Cl)cc1Cl)Oc1ccc(Cl)cc1Cl is ___
Found: < 30%

Lookup: Please give the measured inhibition for this molecule: CCOC(=O)c1cc(Cl)ccc1OS(=O)(=O)c1ccc(NC(C)=O)cc1
Found: 50%

Lookup: So what does the record say about inhibition for Cc1onc(-c2c(Cl)cccc2Cl)c1C(=O)Oc1ccc2c(C(F)(F)F)cc(=O)oc2c1 ?
Found: < 30%

Lookup: Fill blank: measured inhibition of the molecule COc1ccc(Nc2cc(=O)n(-c3ccccc3)c3c2c(=O)n(C)c(=O)n3C)cc1 is ____.
Found: 60%

Lookup: Which inhibition is listed for O/N=C/c1ccc2c(c1)CCO2 ?
Found: < 30%

Lookup: Query (molecule): CCc1ccc2[nH]c(C(=O)N(C)c3ccc(F)cc3F)cc2c1 ; field requested: inhibition
Found: < 30%

Lookup: Requested field: inhibition. Item: COc1ccccc1N1CCN(Cc2c[nH]c3ccccc23)CC1
Found: 70%

Lookup: Give the measured inhibition of Cc1ccc(S(=O)(=O)NCCN2CCN(C(=O)OC(C)(C)C)CC2)cc1 .
Found: < 30%

Lookup: Quick check: inhibition of Fc1ccc(C2CN3C(=N2)C=Cc2ccccc23)cc1 (stereo unspecified) ?
Found: < 30%

Lookup: Can you look up the measured inhibition of CCCCCCCCOc1ccc(S)nn1 for me?
Found: < 30%

----------
Target: Transient receptor potential cation channel subfamily M member 7 (Mus musculus) (UniProt Q923J1)
Experiment: Inhibition of Tet-induced Flag-tagged mouse TRPM7 expressed in HEK293 cells assessed as inhibition of channel-mediated cell death in presence of Mg2+ incubated for 24 to 48 hrs by propidium iodide uptake assay
Assay type: cell-based
Design: concentration or dose not given beside the values
Conditions: concentration not given here
quantity kind: inhibition (%)
Dear colleague, please return just the value in %, with no unit written.

Lookup: # query: inhibition of entry Clc1ccc(-c2noc(-c3sccc3Cl)n2)cc1
Found: 60

Lookup: Look up inhibition for this compound: COc1ccccc1NC(=O)Nc1nn(C)c2cccc(N(C)C)c12
Found: 60

Lookup: Requested field: inhibition. Item: Cc1ccc(NS(=O)(=O)c2ccc(-c3cnc(C)s3)s2)c(C)c1
Found: 80

Lookup: Look up inhibition for this compound: Cc1c(C)c(C)c(CO/N=C/c2cccs2)c(C)c1C
Found: 70

----------
Biological target: Transient receptor potential cation channel subfamily M member 7 (Mus musculus)
Test: Inhibition of Tet-induced Flag-tagged mouse TRPM7 expressed in HEK293 cells assessed as inhibition of channel-mediated cell death in presence of Mg2+ incubated for 24 to 48 hrs by propidium iodide uptake assay
Format: cell-based
Set-up: concentration or dose not given beside the values
Details: concentration not given here
quantity kind: inhibition (%)
API: value field is a number in %; no unit string.

Lookup: So what inhibition did O=C(Oc1ccc([N+](=O)[O-])cc1)c1c(Cl)cccc1Cl get with Transient receptor potential cation channel subfamily M member 7 (Mus musculus)?
Found: 50

Lookup: Look up inhibition with Transient receptor potential cation channel subfamily M member 7 (Mus musculus) for this compound: COc1ccccc1C1CCN(C(=O)CSCc2cccc3ccccc23)CC1
Found: 80

Lookup: Form entry - test system: Transient receptor potential cation channel subfamily M member 7 (Mus musculus); read-out: inhibition; compound: CC(=O)C(C#N)c1nc(-c2ccc(F)cc2)cs1 (stereo unspecified)
Found: 70

Lookup: Provide the documented inhibition with Transient receptor potential cation channel subfamily M member 7 (Mus musculus) as the system for CC(C)(C)c1ccc(-c2noc(-c3ccc4c(c3)CCO4)n2)cc1
Found: 60

Lookup: Test system Transient receptor potential cation channel subfamily M member 7 (Mus musculus); read-out inhibition; what value for CC(=O)C(C#N)c1nc(-c2ccc(Cl)c(C)c2)cs1 (stereo unspecified) ?
Found: 70

----------
Target: Transient receptor potential cation channel subfamily M member 7 (Mus musculus)
Test: Inhibition of Tet-induced Flag-tagged mouse TRPM7 expressed in HEK293 cells assessed as inhibition of channel-mediated cell death in presence of Mg2+ incubated for 24 to 48 hrs by propidium iodide uptake assay
Format: cell-based
Design: concentration or dose not given beside the values
Conditions: concentration not given here
Could you please report measured inhibition for the items listed next?
Answer with a number only, understood to be in %.

Lookup: Which inhibition is reported for this compound? Cc1csc2ncnc(N3CCN(S(=O)(=O)c4ccc(Cl)cc4)CC3)c12
Found: 70

Lookup: Which value of inhibition has been reported for Nc1nc(-c2ccc(-c3ccccc3)cc2)cs1 in the records?
Found: 40

Lookup: I am curious: what inhibition value has been reported for COc1ccc(CCNc2ccc(C(F)(F)F)cc2[N+](=O)[O-])cc1OC ?
Found: 30

Lookup: What value of inhibition has been reported for the following compound? N#Cc1ccc2c(c1)Sc1ccccc1N2
Found: 60

Lookup: Which value of inhibition has been reported for Cc1cc(C(=O)NNC(=O)Nc2ccc(Cl)cc2)no1 in the records?
Found: 30

Lookup: inhibition for CCCCCc1c(COC)c2ccc(O)cc2oc1=O ?
Found: 50

Lookup: State the recorded inhibition for this entry: CSC1=N/C(=C\c2ccc(Cl)cc2)C(=O)N1Cc1ccco1
Found: 60

Lookup: Quick one: inhibition for O=C(Nc1ccc(Cl)cc1)Nc1ccccc1Oc1ccccc1 ?
Found: 50

Lookup: Would you mind telling me what inhibition value was observed for N#Cc1ccc(NS(=O)(=O)c2ccc3ccccc3c2)cc1 ?
Found: 40

Lookup: So what does the record say about inhibition for CC(=O)OC[C@H]1OC(OC(C)(C)C)[C@H](OC(C)=O)[C@@H](OC(C)=O)[C@@H]1OC(C)=O (stereo partly drawn) ?
Found: 40

Lookup: Please give the measured inhibition for this compound: Cc1onc(-c2c(Cl)cccc2Cl)c1C(=O)OCCOc1ccc(C(F)(F)F)cc1[N+](=O)[O-]
Found: 60

Lookup: Endpoint output: inhibition of CCc1cc2c(Sc3nnc(N)s3)ncnc2s1 . Value?
Found: 60

Lookup: Quick check: inhibition of O=C(Nc1ccc(Oc2ccccc2)cc1)Nc1cccs1 ?
Found: 70
